- Test system: DU-145 prostate
- ASSAY_REMARKS: NCI tumour cell line growth inhibition, 48 h
PARAMETER: TGI (µM)
# unit: µM | format: bare number

Q) # return recorded TGI for entry Nc1ncc(-c2ccc3ncnc(N4CCc5ccc(Cl)cc54)c3c2)cc1C(F)(F)F
A) 18.2

Q) # return recorded TGI for entry CCCCOc1ccc(/C=N/Nc2cc(C)nc3ccc(Br)cc23)cc1
A) 3.87

Q) # return recorded TGI for entry O=C1Nc2ccccc2/C1=C\c1nc(-c2ccccc2F)n2ccccc12
A) 12.9

Q) # return recorded TGI for entry O=C1C=C(OCC=C(C(F)(F)F)C(F)(F)F)c2ccccc2C1=O
A) 3.17

Q) # return recorded TGI for entry CCOc1ccc(C(C[N+](=O)[O-])Sc2ccccc2N)cc1 (stereo unspecified)
A) 15

Q) # return recorded TGI for entry Oc1ccc(C(O)(c2ccccc2)c2ccccc2)c2ccccc12
A) 14

Q) # return recorded TGI for entry COc1cc2ncnc(Nc3ccc(Oc4ccnc(C)c4)c(C)c3)c2cc1NC(=O)CC1CCSS1 (stereo unspecified)
A) 6.31

---

Kindly supply the reported TGI values for the records listed here.
- System: HS 578T breast
- ASSAY_REMARKS: NCI tumour cell line growth inhibition, 48 h

Q) # return recorded TGI for entry Cn1cc(C2=C(c3cn(CCCN)c4ccccc34)C(=O)NC2=O)c2ccccc21
A) 16.8 µM

Q) # return recorded TGI for entry Clc1ccc2c(c1)N(C1CCCN(Cc3ccccc3)C1)c1ccccc1S2 (stereo unspecified)
A) 6.07 µM

Q) # return recorded TGI for entry CCOc1ccc(C(C[N+](=O)[O-])Sc2ccccc2N)cc1 (stereo unspecified)
A) 18.3 µM

Q) # return recorded TGI for entry O=C(O)CCCNc1ncc2c(n1)-c1ccccc1OC2
A) > 100 µM

Q) # return recorded TGI for entry CCOC(=O)OC1C(Br)C2CCC1(C)C2(C)C (stereo unspecified)
A) 32.5 µM

Q) # return recorded TGI for entry O=C(Nc1cc(Cl)cc(Cl)c1)c1cccc(NC2=C(Cl)C(=O)N(Cc3ccccc3)C2=O)c1
A) > 100 µM

Q) # return recorded TGI for entry N=C(N)c1ccc(-c2ccc(-c3ccc4ccccc4c3)s2)s1
A) 4.71 µM

Q) # return recorded TGI for entry Oc1ccc(C(O)(c2ccccc2)c2ccccc2)c2ccccc12
A) 44.8 µM

Q) # return recorded TGI for entry CCOC(=O)CSC1NC(C(=O)OC)CC1OC (stereo unspecified)
A) > 100 µM

Q) # return recorded TGI for entry CCS(=O)c1c2cc(OC)ccc2nc2ccc(OC)cc12 (stereo unspecified)
A) 38.9 µM

Q) # return recorded TGI for entry Cc1cn(Cc2cccc(C3=NCCCN3)c2)c(=O)n(Cc2cccc(C3=NCCCN3)c2)c1=O
A) > 100 µM

---

- Tested on: HOP-92 NSCLC
- ASSAY_REMARKS: NCI tumour cell line growth inhibition, 48 h
Each entry gets Condition not met if its TGI stays under 6 µM, and Condition met if its TGI is 6 µM or above.

Q) Entry C=CCNC1=C2C[C@@H](C)C[C@H](OC)[C@H](O)[C@@H](C)/C=C(\C)[C@H](OC(N)=O)[C@@H](OC)/C=C\C=C(/C)C(=O)NC(=CC1=O)C2=O : is its TGI no less than 6 µM?
A) Condition met

Q) Entry CC1(C)C(=O)C(C)(C)C1=NNC(N)=S : is its TGI no less than 6 µM?
A) Condition met

Q) Entry C/C(=N\Nc1nc2ccccc2[nH]1)c1cnccn1 : is its TGI no less than 6 µM?
A) Condition not met

Q) Entry Nc1cccc(OCC2CCCN3CCCCC23)c1 (centres undefined) : is its TGI no less than 6 µM?
A) Condition met

Q) Entry O=C1C=C(OCC=C(C(F)(F)F)C(F)(F)F)c2ccccc2C1=O : is its TGI no less than 6 µM?
A) Condition not met

Q) Entry O=C(Nc1cc(Cl)cc(Cl)c1)c1cccc(NC2=C(Cl)C(=O)N(Cc3ccccc3)C2=O)c1 : is its TGI no less than 6 µM?
A) Condition met

Q) Entry CC(=O)OCC1OC(NC(=O)N(CCCl)N=O)C(OC(C)=O)C(OC(C)=O)C1OC(C)=O (centres undefined) : is its TGI no less than 6 µM?
A) Condition met

Q) Entry CCN1C(=O)N(CC)C2C1NN=c1s/c(=C3\C(=O)N(C4CCCC4)c4ccccc43)c(=O)n12 (centres undefined) : is its TGI no less than 6 µM?
A) Condition met

Q) Entry CCOC(=O)CCC(NC(=O)c1ccc(Oc2nc3c(N)cc(C(F)(F)F)cc3nc2-c2ccccc2)cc1)C(=O)OCC (centres undefined) : is its TGI no less than 6 µM?
A) Condition met

---

- Tested on: SN12C renal
- ASSAY_REMARKS: NCI tumour cell line growth inhibition, 48 h
Each entry gets no if its TGI stays under 30 µM, and yes if its TGI is 30 µM or above.

Q) Entry C[P+](c1ccccc1)(c1ccc(Cl)cc1)c1ccc(Cl)cc1 : is its TGI no less than 30 µM?
A) yes

Q) Entry Cc1c2ccncc2c(C)c2c1[nH]c1ccc(Oc3ccccc3)cc12 : is its TGI no less than 30 µM?
A) no

Q) Entry COc1ccc2c(O)c(/C=C3\N=Nc4ncccc43)oc2c1C[C@@H]1CCNC[C@H]1F : is its TGI no less than 30 µM?
A) no

Q) Entry CCOC(=O)OC1C(Br)C2CCC1(C)C2(C)C (stereo not given) : is its TGI no less than 30 µM?
A) no

Q) Entry CC(=O)c1ccccc1NC(=O)C(=O)C(C(=O)c1ccccc1-c1ccccc1)C1OC(=O)c2ccccc21 (stereo not given) : is its TGI no less than 30 µM?
A) yes

Q) Entry O=C1OCC(c2ccc(Cl)cc2)=C1Cl : is its TGI no less than 30 µM?
A) yes

Q) Entry COc1cc2c(c(OC)c1OC)-c1ccc(SC)c(=O)cc1[C@@H](NC(=O)C(F)(F)F)CC2 : is its TGI no less than 30 µM?
A) no

Q) Entry CNC(=O)c1c(F)cccc1Nc1nc(Nc2cc3c(cc2OC)CCN3C(=O)CN(C)C)nc2[nH]ccc12 : is its TGI no less than 30 µM?
A) no

Q) Entry ClCC[N-]CC[N-]CCCl.ClCC[N-]CC[N-]CCCl.[O-][Cl+3]([O-])([O-])O.[Zn+2] : is its TGI no less than 30 µM?
A) yes

Q) Entry O=C1Nc2ccccc2/C1=C\c1nc(-c2ccccc2F)n2ccccc12 : is its TGI no less than 30 µM?
A) no

Q) Entry O=C1C=C(OCC=C(C(F)(F)F)C(F)(F)F)c2ccccc2C1=O : is its TGI no less than 30 µM?
A) no

Q) Entry COC1=C2CC(C)CC(OC)C(OC(=O)CN)[C@H](C)/C=C(\C)C(OC(N)=O)C(OC)/C=C\C=C(/C)C(=O)NC(=CC1=O)C2=O (stereo not given in full) : is its TGI no less than 30 µM?
A) no

---

- System: SNB-78 CNS
- ASSAY_REMARKS: NCI tumour cell line growth inhibition, 48 h
PARAMETER: TGI

Q) # return recorded TGI for entry Nc1nc(N)c2ncn(CCOC(c3ccccc3)P(=O)(O)O)c2n1 (configuration not stated)
A) > 100 µM

Q) # return recorded TGI for entry COc1c(I)c(OC)c2c(c1I)O[C@@H]1OCC[C@H]21
A) > 100 µM

Q) # return recorded TGI for entry CC(=O)NNc1nc(C)c(C(=O)NNC(=O)C(=O)Nc2c([N+](=O)[O-])ccc(C)c2C)s1
A) > 100 µM

Q) # return recorded TGI for entry COCN(C)c1nc(N(C)C)nc(N(C)C)n1
A) > 100 µM

Q) # return recorded TGI for entry O=C(N/C(=C\c1ccccc1O)c1nc2ccccc2[nH]1)c1ccccc1
A) > 100 µM

Q) # return recorded TGI for entry CC(C)COC1Sc2ccccc2S1
A) 65.1 µM

Q) # return recorded TGI for entry CCCCCCCCCCCCCCCC(=O)OCCOCCOCCOCCOCCOC(=O)CCCCCCCCCCCCCCC
A) > 100 µM

Q) # return recorded TGI for entry O=C(CCC(=O)Nc1cccc(C(F)(F)F)c1)CC(=O)c1ccc2ccccc2c1
A) > 100 µM

Q) # return recorded TGI for entry N#Cc1ccc(Oc2ccccc2)cc1C#N
A) > 100 µM

Q) # return recorded TGI for entry O=C1NC2(CCCCC2)C(=O)N1CCN(CCCl)CCCl
A) > 245 µM

Q) # return recorded TGI for entry COc1cc2c(oc(=O)c3cc4cc([Si](C)(C)C)oc4c(OC)c32)c2cccc(O)c12
A) > 100 µM

Q) # return recorded TGI for entry Cc1ccc(N=C2N=C(N3CC(C)OC(C)C3)c3ccccc32)cc1 (configuration not stated)
A) > 100 µM
